Assign pIC50 to each entry below.
# Test system: HT-29
# assaySummary: Antiproliferative activity against human HT-29 cells assessed as cell growth inhibition incubated for 48 hrs by MTT assay
# Type: functional, cell-based
# measurementSetup: HT-29, 48 h
On this scale, pIC50 is minus log10 of a concentration expressed in M (mol/L).

Supply pIC50 value. Item: COc1cc(Cc2nnc3n2N=C(c2ccc(C(F)(F)F)cc2)CS3)cc(OC)c1OC
5.30

Supply pIC50 value. Item: COc1ccc(C2=Nn3c(COc4cc(OC)c(OC)c(OC)c4)nnc3SC2)cc1N
5.31

Supply pIC50 value. Item: COc1ccc(C2=Nn3c(Cc4cc(OC)c(OC)c(OC)c4)nnc3SC2)cc1
4.37
